system: PC-3; experiment: NCI tumour cell line growth inhibition, 48 h
Activity calls are given as the source filed them. Rule as the data show it: active = GI50 up to about 1.1 µM and inactive = higher.
Possible outcomes: yes (1) for active, no (0) for inactive

- CCCCN(C)C(=O)C1=C(C)NC(C)=C(C(=O)N(C)CCCC)C1: no (0)
- N#Cc1ccc(Nc2nc3[nH]cnc3c(=O)[nH]2)cc1: no (0)
- CN(C)CCn1c(=O)c2ccc(NCCCN(C)CCCNc3ccc4c(=O)n(CCN(C)C)c(=O)n5c6ccc([N+](=O)[O-])cc6c(=O)c3c45)c3c(=O)c4cc([N+](=O)[O-])ccc4n(c1=O)c23: yes (1)
- Cc1nc(-c2cc3cc([N+](=O)[O-])ccc3oc2=O)cs1: no (0)
- O=C(O)CCCOc1cc(-c2ccccc2F)nc2cc3c(cc12)OCO3: no (0)
- CCOC(=O)C(=O)NNc1nc2c(s1)C(=O)c1ccccc1C2=O: no (0)
- CCC(=O)Nc1ccc(N2C(=O)C(Cl)C2c2ccc(SC)cc2)cc1 (centres undefined): no (0)
- COc1cccc(OC)c1C1ON=C(c2ccccc2)N1C12CC3CC(CC(C3)C1)C2 (centres undefined): no (0)
- O=C1C2=C(CC3=C(C2)CS(=O)(=O)C3)C(=O)C2=C1CC1=C(C2)CS(=O)(=O)C1: no (0)
- C#CCNC(=O)NC(CCCCNC(=O)OCc1ccccc1)C(=O)OCc1ccccc1 (centres undefined): no (0)
- COC(=O)[C@](NC(=O)OCc1ccccc1)([C@@H](C)[S+]([O-])c1ccc(C)cc1)C(F)(F)F (some centres undefined): no (0)
- CCCCCCNC(=O)c1cnc(Cl)cn1: no (0)
- CC(=O)Nc1ccc2[nH]c(C(=O)N3CC(CCl)c4c3cc(N)c3ccccc43)cc2c1 (centres undefined): yes (1)
- Nc1nc(-c2ccccc2)nc2oc(-c3cccs3)nc12: no (0)

* * *

system: UACC-257; experiment: NCI tumour cell line growth inhibition, 48 h
Active and inactive are the calls of the source. No stated cut-off is given here; in the data, active = GI50 up to about 1.1 µM and inactive = higher.
Overview of recorded GI50 for various compounds
recorded metric: GI50

- COC(CNC(=O)C(C)NC(=O)C(C)NC(=O)c1ccccc1)OC (configuration not stated): > 100 µM (inactive)
- CCCOC1OC(CS(=O)(=O)O)C(OC(C)=O)C(OC(C)=O)C1OC(C)=O (configuration not stated): > 100 µM (inactive)
- COC(=O)C1=C(C)NC(C)=C(C(=O)OC)C1c1ccc(/[N+]([O-])=C/c2ccccc2)cc1: 29.6 µM (inactive)
- Cc1ncc(CO)c(/C=N/CCCCCC/N=C/c2c(CO)cnc(C)c2[O-])c1[O-].[Mg+2]: > 100 µM (inactive)
- N#CC1=C(c2ccccc2)NNC(c2ccc(Cl)cc2)CC1=O (configuration not stated): 45 µM (inactive)
- CC1=C(/C=C/C(C)=C/C=C/C(C)=C/C(=O)O)C(C)(C)CCC1 [TRETINOIN]: 62.4 µM (inactive)
- Clc1ccc(Cl)c2[s+]snc12: > 93.3 µM (inactive)
- Cc1ccc(-c2c(C#N)c(-c3ccc([N+](=O)[O-])cc3)c(C#N)c(=O)n2NS(=O)(=O)c2ccc(C)cc2)cc1: > 100 µM (inactive)
- Cc1ccc(S(=O)(=O)C2=C([Si](C)(C)C)C3CC2[C@@H]2C4C=CC(CC4)[C@H]32)cc1 (some centres not stated): > 100 µM (inactive)
- CCO/C([O-])=C(\C(=O)c1ccccc1)[n+]1c(C)sc2ccccc21: 13.5 µM (inactive)
- CCc1n[nH]c(=O)n1O: > 100 µM (inactive)
- Cc1ccc(NCCCN2CCN(CCCNc3ccc(C)c4sc5ccccc5c(=O)c34)CC2)c2c(=O)c3ccccc3sc12: > 100 µM (inactive)
- CC(=O)Oc1c(-c2ccccc2)oc2ccccc12: 2.59 µM (inactive)
- ClC(Cl)(Cl)C(N1CCN(c2ccccc2)CC1)N1CCN(c2ccccc2)CC1: > 100 µM (inactive)
- Cc1ccc2c(=O)c(-c3nnsn3)c[nH]c2n1: > 100 µM (inactive)
- CC(C)(Br)C(=O)C(Br)Br: 9.84 µM (inactive)
- COc1cc(Oc2nc3cc(F)c(F)cc3nc2-c2ccccc2)cc(OC)c1OC: > 100 µM (inactive)
- Nc1nc(O)c2c(ncn2CCO)n1: > 100 µM (inactive)
- Nc1ccc(-c2cc(C(=O)Nc3nccs3)nc(S)n2)cc1: > 100 µM (inactive)
- CC(=O)c1c2c(cc3c1CC1(C3)Cc3cc4c(c(C(=O)O)c3C1)CCC4)CCC2 (configuration not stated): 45 µM (inactive)
- Cc1ccc(S(=O)(=O)c2scc(-c3ccccc3)c2C)cc1: 74 µM (inactive)
- O=C1OC(c2ccccc2)=N/C1=C\c1ccc(N(CCCl)CCCl)cc1: > 100 µM (inactive)
- CCOC(=O)c1c(-c2ccc(Cl)cc2)c(C#N)c(=S)n(C2OC(CO)C(O)C(O)C2O)c1-c1ccccc1 (configuration not stated): 27.5 µM (inactive)
- COc1cccc(/C=C2\C(=O)N(C(=O)c3ccc(NC(C)=O)cc3)N=C2C)c1: > 100 µM (inactive)
- CCCCCCCCCOCC(COP(=O)([O-])OCC[N+](C)(C)C)OC (configuration not stated): > 100 µM (inactive)
- COc1cc(/C=C2\CC(C)C/C(=C\c3ccc(O)c(OC)c3)C2=O)ccc1O (configuration not stated): 3.87 µM (inactive)
- N#CCCN(CCC#N)c1ccc(C(=N/c2ccc(F)cc2)/N=N/c2ccc(Cl)cc2)cc1: > 100 µM (inactive)
- Cc1c[n+]([O-])c2ccccc2[n+]1[O-]: > 100 µM (inactive)
- O=C1c2ccccc2C2C1C(c1ccccc1)C1(Cc3ccccc3C1=O)C2c1ccccc1 (configuration not stated): > 100 µM (inactive)
- COc1ccc(C(=O)NCCC2CN(S(=O)(=O)C(F)(F)F)c3ccccc32)c(OC)c1 (configuration not stated): 40.8 µM (inactive)
- Cc1cc(-n2nnc(C(=O)O)c2-c2ccccc2)c2ccc(Cl)cc2n1: > 100 µM (inactive)
- CCN(CC)Cc1nc2sc3c(c2c(=O)n1-c1ccccc1)CCCC3: 21.2 µM (inactive)
- c1ccc2c(c1)[nH]c1c2ncc2[nH]c3ccccc3c21: > 10 µM (inactive)
- NS(=O)(=O)c1ccc(NNc2c3ccccc3nc3ccccc23)cc1: 13.2 µM (inactive)
- O=c1[nH]cnc2cccc(Cl)c12: > 100 µM (inactive)
- CCc1nc(N)nc(N)c1-c1ccc(N(C)Cc2ccccc2)c([N+](=O)[O-])c1: 2.58 µM (inactive)
- Cc1cc(C)nc(NS(=O)(=O)c2ccc(NC(=O)COC(=O)c3cccc4c(=O)c5ccccc5[nH]c34)cc2)n1: 27.1 µM (inactive)
- CN1CC(c2ccccc2)=CC2=C1C=CC(=N)/C2=N\N: > 100 µM (inactive)
- Nc1nc(-c2ccccc2)nc2oc(-c3cccs3)nc12: > 100 µM (inactive)
- CCCC(=O)NC(Nc1ccc(S(=O)(=O)Nc2nc(C)cc(C)n2)cc1)(C(F)(F)F)C(F)(F)F: > 100 µM (inactive)
- COC(=O)C1CCCN1C(=O)C(Cc1cn(S(=O)(=O)c2ccc(C)cc2)cn1)NC(=O)OC(C)(C)C (configuration not stated): > 100 µM (inactive)
- N#Cc1ccc(Nc2nc3[nH]cnc3c(=O)[nH]2)cc1: > 100 µM (inactive)
